Values from PubChem BioAssay (NCATS)

- System: HEK293
- assay-remarks: Cytotoxic Profiling of Annotated Libraries Using Quantitative High-Throughput Screening (AID 1296008); also: % is scaled to controls: 0 for no effect and ±100 for the full control effect; nearly all actives have a fitted effect of over 60% in size
- condition-parameters: Five cell lines viability, CellTiter-Glo ATP luminescence, 48-72 h; active compounds read low
- Description: Cell-based phenotypic screening is a commonly used approach to discover biological pathways, novel drug targets, chemical probes and high-quality hit-to-lead molecules. […] A pintool (Kalypsys) was used to transfer 23 nL of compound solution to the 1536-well assay plates. […] Plates were left at room temperature for 10 min before imaging the ATP-coupled luminescence using a ViewLux microplate imager (PerkinElmer, Waltham, MA).
Results filed as inconclusive are left out.
assay-endpoint: max response (%)
Lab book: enter the figure in %, no units written.

Request: So what does the record say about max response for COc1cc(/C=C/C(=O)O[C@H]2CC[C@]34C[C@]35CC[C@]3(C)[C@@H]([C@H](C)CCC=C(C)C)CC[C@@]3(C)[C@@H]5CC[C@H]4C2(C)C)ccc1O ?
Result: 2.65

Request: # iterate: COc1ccc(C2C(=O)c3ccccc3C2=O)cc1
Result: -6.61

Request: What would you report for CN1[C@@H]2CC[C@H]1CC(OC(=O)c1c[nH]c3ccccc13)C2 (some centres undefined) ?
Result: 4.73

Request: Also, CCCCCCCCCCCCCCCCCC(=O)OCC(O)CO (centres undefined) please.
Result: -6.82

Request: Try O=C(O)CNC(=O)c1ccccc1 next.
Result: -10.7

Request: Queued: NC(CS)C(=O)O (centres undefined)
Result: -10

Request: Another: CC[N+](CC)(CCNC(=O)C(=O)NCC[N+](CC)(CC)Cc1ccccc1Cl)Cc1ccccc1Cl
Result: 2.37

Request: Repeat for the following compound: Cc1ccc(C(=O)C(C)CN2CCCCC2)cc1 (centres undefined)
Result: 0.201

Request: Same read-out for NC[C@H]1O[C@H](O[C@H]2[C@H](O[C@@H]3O[C@H](CO)[C@@H](O)[C@H]3O)C(O)[C@H](N)C[C@@H]2N)[C@H](N)[C@@H](O)[C@@H]1O (some centres undefined) ?
Result: 0.11

Request: Could you do the same for Cc1nc2n(c(=O)c1CCN1CCC(c3noc4cc(F)ccc34)CC1)CCC[C@H]2O , please?
Result: -1.89

Request: Item: CCC(C(=O)OCCN(CC)CC)c1ccccc1 (centres undefined)
Result: 3.62

Request: # repeat for OC[C@H]1O[C@H](O[C@]2(CCl)O[C@H](CCl)[C@@H](O)[C@@H]2O)[C@H](O)[C@@H](O)[C@H]1Cl
Result: -9.55

Request: Note, next up: CC(C)(C)NC(=O)[C@@H]1CN(Cc2cccnc2)CCN1C[C@@H](O)C[C@@H](Cc1ccccc1)C(=O)N[C@H]1c2ccccc2C[C@H]1O
Result: 3.56

Request: Next: O=c1[nH]c(=O)n([C@H]2CCCO2)cc1F
Result: 1.04

Request: Okay, and NC[C@H]1O[C@H](O[C@H]2[C@H](O)[C@@H](O[C@H]3O[C@H](CO)[C@@H](O)[C@H](N)[C@H]3O)[C@H](N)C[C@@H]2N)[C@H](N)[C@@H](O)[C@@H]1O ?
Result: -0.173

Request: Cool, now CN1CCN(C(c2ccccc2)c2ccccc2)CC1
Result: -9.52

Request: And what about the compound COc1cc(OC)cc(OC)c1 ?
Result: 0.846

Request: Another compound: CCCCC(=O)O[C@]1(C(=O)CO)CC[C@H]2[C@@H]3CCC4=CC(=O)CC[C@]4(C)[C@H]3[C@@H](O)C[C@@]21C
Result: 3.34

Request: Now try Cc1onc(-c2c(Cl)cccc2Cl)c1C(=O)N[C@@H]1C(=O)N2[C@@H]1SC(C)(C)[C@@H]2C(=O)O .
Result: -5.63
